# TARGET_OR_SYSTEM: C. ensiformis urease (CEU) (Canavalia ensiformis, UniProt P07374)
# Construct: purchased Merck (Sigma-Aldrich) Jack bean type III (CAS 9002-13-5)
# Sequence (P07374 whole entry, looked up): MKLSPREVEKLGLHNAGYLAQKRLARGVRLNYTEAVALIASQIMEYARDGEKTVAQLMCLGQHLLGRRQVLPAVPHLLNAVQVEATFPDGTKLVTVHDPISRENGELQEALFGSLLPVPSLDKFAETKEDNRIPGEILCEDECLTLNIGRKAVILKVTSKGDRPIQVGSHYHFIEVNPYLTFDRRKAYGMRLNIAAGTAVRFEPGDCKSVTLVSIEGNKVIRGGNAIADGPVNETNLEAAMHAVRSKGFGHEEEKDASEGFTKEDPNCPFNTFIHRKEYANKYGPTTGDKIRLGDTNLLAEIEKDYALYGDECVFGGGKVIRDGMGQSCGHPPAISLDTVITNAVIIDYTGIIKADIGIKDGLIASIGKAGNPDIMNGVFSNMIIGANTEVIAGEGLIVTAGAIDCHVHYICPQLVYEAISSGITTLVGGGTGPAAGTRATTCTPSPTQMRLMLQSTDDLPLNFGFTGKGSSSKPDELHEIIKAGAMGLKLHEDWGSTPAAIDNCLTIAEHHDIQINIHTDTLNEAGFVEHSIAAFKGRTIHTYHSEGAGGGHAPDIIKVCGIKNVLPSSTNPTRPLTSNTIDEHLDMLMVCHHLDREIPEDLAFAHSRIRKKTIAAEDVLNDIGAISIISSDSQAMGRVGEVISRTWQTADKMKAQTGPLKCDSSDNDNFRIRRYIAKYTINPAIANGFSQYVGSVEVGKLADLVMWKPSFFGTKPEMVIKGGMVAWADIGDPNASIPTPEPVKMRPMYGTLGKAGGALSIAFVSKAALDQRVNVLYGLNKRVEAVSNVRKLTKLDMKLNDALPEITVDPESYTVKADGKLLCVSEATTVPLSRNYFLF
# METHOD_DESCRIPTION: biochemical
# MEASUREMENT_CONDITIONS: read-out: %I ± SD (inhibitory percentage against CEU), test substance at 2.00 mM; triplicate
QUANTITY_NAME: inhibition at 2000 µM (%)
Field format: number, assumed %, no unit text.

O=C(/C=C/c1ccccc1)NC(=S)Nc1ccc(F)cc1
24
NC(=S)NC(=O)/C=C/c1ccccc1
82
NC(=S)Nc1ccc(Br)cc1
86.2

Entry under review: `Cc1ccc(NC(=S)NC(=O)/C=C/c2ccccc2)cc1` . Reported inhibition at 2000 µM? 13

Entry under review: `COc1ccc(NC(N)=S)cc1` . Reported inhibition at 2000 µM? 84

Entry under review: `NC(=S)Nc1ccc(Cl)cc1` . Reported inhibition at 2000 µM? 87.6

Entry under review: `Cc1ccc(NC(N)=S)cc1` . Reported inhibition at 2000 µM? 87.9

Entry under review: `NC(=S)Nc1ccc([N+](=O)[O-])cc1` . Reported inhibition at 2000 µM? 88.3

* * *

# TARGET_OR_SYSTEM: C. ensiformis urease (CEU) (Canavalia ensiformis, UniProt P07374)
# Construct: purchased Merck (Sigma-Aldrich) Jack bean type III (CAS 9002-13-5)
# METHOD_DESCRIPTION: biochemical
# MEASUREMENT_CONDITIONS: test substance at 2.00 mM; triplicate
Marks after values point to notes of the source that are not given here.
QUANTITY_NAME: %I ± SD (inhibitory percentage against CEU)

# annotated cases, reported %I ± SD (inhibitory percentage against CEU) shown
Cc1ccc(NC(=S)NC(=O)/C=C/c2ccccc2)cc1 [LaSMMed 46]
13.04 ± 2.46^f %
NC(N)=S [Thiourea]
84.12 ± 0.84^d %
NC(=S)NC(=O)/C=C/c1ccccc1 [LaSMMed 42]
82.37 ± 0.34^d %
CNC(=S)NC(=O)/C=C/c1ccccc1 [LaSMMed 37]
33.53 ± 1.06^c %
CCCCCCNC(=S)NC(=O)/C=C/c1ccccc1 [LaSMMed 40]
39.34 ± 1.72^c %

C. ensiformis urease (CEU) (Canavalia ensiformis, UniProt P07374) / %I ± SD (inhibitory percentage against CEU) / COc1ccc(NC(N)=S)cc1 [LaSMMed 125] : value? 84.56 ± 1.23^b %

C. ensiformis urease (CEU) (Canavalia ensiformis, UniProt P07374) / %I ± SD (inhibitory percentage against CEU) / O=C(/C=C/c1ccccc1)NC(=S)Nc1ccc(F)cc1 [LaSMMed 45] : value? 23.98 ± 1.44^e %

* * *

# key: entry, value: Alfa (α)
# TARGET_OR_SYSTEM: C. ensiformis urease (CEU) (Canavalia ensiformis, UniProt P07374)
# Construct: purchased Merck (Sigma-Aldrich) Jack bean type III (CAS 9002-13-5)
# METHOD_DESCRIPTION: Enzyme kinetics on C. ensiformis urease (Michaelis–Menten, Lineweaver–Burk plots)
# Assay type: biochemical
# MEASUREMENT_CONDITIONS: mixed inhibitors
Hey, just send me the number, nothing else.

# annotated cases, reported Alfa (α) shown
NC(=S)Nc1ccc([N+](=O)[O-])cc1 [LaSMMed 124]
6.13
NC(=S)Nc1ccc(Cl)cc1 [LaSMMed 122]
6.00
Cc1ccc(NC(N)=S)cc1 [LaSMMed 126]
4.88

Please examine the following record next.
Entry under review: NC(=S)Nc1ccc(Br)cc1 [LaSMMed 123] . Reported Alfa (α)? 9.75

* * *

# TARGET_OR_SYSTEM: C. ensiformis urease (CEU) (Canavalia ensiformis)
# Construct: purchased Merck (Sigma-Aldrich) Jack bean type III (CAS 9002-13-5)
# METHOD_DESCRIPTION: biochemical
# MEASUREMENT_CONDITIONS: IC50 ± SD, 0.2-2.0 mM; triplicate
QUANTITY_NAME: IC50 (µM)
Field format: number, assumed µM, no unit text.

# annotated cases, reported IC50 shown
NC(=S)Nc1ccc([N+](=O)[O-])cc1 [LaSMMed 124]
464
COc1ccc(NC(N)=S)cc1 [LaSMMed 125]
510
NC(=S)Nc1ccc(Br)cc1 [LaSMMed 123]
493

Please examine the following record next.
Entry under review: Cc1ccc(NC(N)=S)cc1 [LaSMMed 126] . Reported IC50? 568

* * *

# TARGET_OR_SYSTEM: C. ensiformis urease (CEU) (Canavalia ensiformis, UniProt P07374)
# Construct: purchased Merck (Sigma-Aldrich) Jack bean type III (CAS 9002-13-5)
# METHOD_DESCRIPTION: Enzyme kinetics on C. ensiformis urease (Michaelis–Menten, Lineweaver–Burk plots)
# Type: biochemical
# MEASUREMENT_CONDITIONS: CEU kinetic parameter with the compound
# key: entry, value: Vmax
Field format: number, assumed µmol/min, no unit text.

NC(=S)Nc1ccc(Cl)cc1 [LaSMMed 122]
735.50

C. ensiformis urease (CEU) (Canavalia ensiformis, UniProt P07374) / Vmax / NC(=S)Nc1ccc([N+](=O)[O-])cc1 [LaSMMed 124] : value? 733.50

C. ensiformis urease (CEU) (Canavalia ensiformis, UniProt P07374) / Vmax / NC(=S)Nc1ccc(Br)cc1 [LaSMMed 123] : value? 741.30

C. ensiformis urease (CEU) (Canavalia ensiformis, UniProt P07374) / Vmax / Cc1ccc(NC(N)=S)cc1 [LaSMMed 126] : value? 732.30

C. ensiformis urease (CEU) (Canavalia ensiformis, UniProt P07374) / Vmax / COc1ccc(NC(N)=S)cc1 [LaSMMed 125] : value? 737.50

* * *

# TARGET_OR_SYSTEM: C. ensiformis urease (CEU) (Canavalia ensiformis, UniProt P07374)
# Construct: purchased Merck (Sigma-Aldrich) Jack bean type III (CAS 9002-13-5)
# METHOD_DESCRIPTION: biochemical
# MEASUREMENT_CONDITIONS: 0.2-2.0 mM; triplicate; read-out: IC50 ± SD
QUANTITY_NAME: pIC50
Hey, just a heads up that pIC50 is the negative log base 10 of the concentration in molar.

Entry under review: NC(N)=S [Thiourea] . Reported pIC50? 3.30

* * *

# TARGET_OR_SYSTEM: C. ensiformis urease (CEU) (Canavalia ensiformis)
# Construct: purchased Merck (Sigma-Aldrich) Jack bean type III (CAS 9002-13-5)
# METHOD_DESCRIPTION: Enzyme kinetics on C. ensiformis urease (Michaelis–Menten, Lineweaver–Burk plots)
# Assay type: biochemical
# MEASUREMENT_CONDITIONS: Ki, Lineweaver–Burk; compound 0.50 and 0.25 mM
QUANTITY_NAME: Ki (µM)
Field format: number, assumed µM, no unit text.

COc1ccc(NC(N)=S)cc1
80
NC(=S)Nc1ccc(Br)cc1
110
Cc1ccc(NC(N)=S)cc1 [LaSMMed 126]
100

C. ensiformis urease (CEU) (Canavalia ensiformis) / Ki / NC(=S)Nc1ccc([N+](=O)[O-])cc1 [LaSMMed 124] : value? 130
